System: 993429-296-R-J1-PDC complex spheroid growth, percent test/control
Assay: Anticancer human tumor 993429-296-R-J1-PDC patient-derived uterine sarcoma cell line growth inhibition [Asc]
Conditions: curve of first compound; second compound 0.1 µM
quantity: IC50

Use the examples below as a reference point.
compound: CCN1C(C(=O)NC23CCC(C(=O)O)(CC2)CC3)C(c2cccc(Cl)c2F)C2(C(=O)Nc3cc(Cl)ccc32)C12CCCCC2 (stereo not drawn) + Cc1c(S(C)(=O)=O)c(-c2cc(F)cc(N3CCN(c4ccc(NS(=O)(=O)c5ccc(NC(CCN6CCC(C(=O)OCCCP(=O)(O)O)CC6)CSc6ccccc6)c(S(=O)(=O)C(F)(F)F)c5)cc4)CC3)c2)c(-c2ccc(Cl)cc2)n1C(C)C
IC50: > 3000 nM
//
compound: NC1CCC(NC2CC2c2ccccc2)CC1 (stereo not drawn) + Cc1c(S(C)(=O)=O)c(-c2cc(F)cc(N3CCN(c4ccc(NS(=O)(=O)c5ccc(NC(CCN6CCC(C(=O)OCCCP(=O)(O)O)CC6)CSc6ccccc6)c(S(=O)(=O)C(F)(F)F)c5)cc4)CC3)c2)c(-c2ccc(Cl)cc2)n1C(C)C
IC50: > 100 nM

Let us examine a further case.
IC50 of C#Cc1c(F)ccc2cc(O)cc(-c3ncc4c(N5CC6CCC(C5)N6)nc(OCC56CCCN5CC(F)C6)nc4c3F)c12 (stereo not drawn) + Cc1c(S(C)(=O)=O)c(-c2cc(F)cc(N3CCN(c4ccc(NS(=O)(=O)c5ccc(NC(CCN6CCC(C(=O)OCCCP(=O)(O)O)CC6)CSc6ccccc6)c(S(=O)(=O)C(F)(F)F)c5)cc4)CC3)c2)c(-c2ccc(Cl)cc2)n1C(C)C on 993429-296-R-J1-PDC complex spheroid growth, percent test/control? 2930 nM

====

System: 993429-296-R-J1-PDC complex spheroid growth, percent test/control
Assay: Anticancer human tumor 993429-296-R-J1-PDC cell line growth inhibition [Asc];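 note: spheroids exposed to compounds for seven days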
Details: second compound 0.03 µM; first compound 0.1 µM; stronger effect = lower value
List of viability, T/C values.
Express your answer in %, writing the number without its unit.

compound: NC1CCC(NC2CC2c2ccccc2)CC1 (stereo not drawn) + CCN1C(C(=O)NC23CCC(C(=O)O)(CC2)CC3)C(c2cccc(Cl)c2F)C2(C(=O)Nc3cc(Cl)ccc32)C12CCCCC2
system.under.test: 993429-296-R-J1-PDC complex spheroid growth, percent test/control
obs.value: 91.8
//
compound: CNC(C)C(=O)NC1CN(S(=O)(=O)c2cccc(S(=O)(=O)N3CCC4CCC(C(=O)NC(c5ccccc5)c5ccccc5)N4C(=O)C(NC(=O)C(C)NC)C3)c2)CCC2CCC(C(=O)NC(c3ccccc3)c3ccccc3)N2C1=O (stereo not drawn) + CCN1C(C(=O)NC23CCC(C(=O)O)(CC2)CC3)C(c2cccc(Cl)c2F)C2(C(=O)Nc3cc(Cl)ccc32)C12CCCCC2
system.under.test: 993429-296-R-J1-PDC complex spheroid growth, percent test/control
obs.value: 57

viability, T/C for O=C(c1cc(Cc2n[nH]c(=O)c3ccccc23)ccc1F)N1CCN(C(=O)C2CC2)CC1 + CCN1C(C(=O)NC23CCC(C(=O)O)(CC2)CC3)C(c2cccc(Cl)c2F)C2(C(=O)Nc3cc(Cl)ccc32)C12CCCCC2 ? 104

meta.source: PubChem BioAssay AID1963446
